molecular target: IDO (Homo sapiens (Human), UniProt P14902); test: LLE_IDO_ABS_DR (IDO assay, method not described)
Sequence (P14902 whole entry): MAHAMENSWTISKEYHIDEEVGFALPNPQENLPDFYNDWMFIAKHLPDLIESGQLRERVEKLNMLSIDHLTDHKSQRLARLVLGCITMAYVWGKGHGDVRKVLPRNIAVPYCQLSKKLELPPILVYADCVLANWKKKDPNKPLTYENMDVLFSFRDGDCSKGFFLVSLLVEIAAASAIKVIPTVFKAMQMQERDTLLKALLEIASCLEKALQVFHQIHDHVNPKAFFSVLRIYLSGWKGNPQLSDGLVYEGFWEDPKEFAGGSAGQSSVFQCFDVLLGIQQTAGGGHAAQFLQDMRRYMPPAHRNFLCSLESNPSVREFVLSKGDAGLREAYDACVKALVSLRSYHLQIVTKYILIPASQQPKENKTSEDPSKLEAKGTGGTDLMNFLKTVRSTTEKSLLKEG
pIC50: −log10 of the molar value.
Label yes when pIC50 is at or above 6; otherwise label no.

Ask: # bool: pIC50 of "CCCOc1c(C/C=C/C(F)(F)F)cc(-c2ccccc2-c2nnn[nH]2)cc1NC(=O)Nc1ccc(C)cc1" >= 6
Reply: yes

Ask: # bool: pIC50 of "O=C(Nc1ccc(F)cc1F)Nc1cc(-c2ccccc2-c2nnn[nH]2)cc(CC2CC2)c1OCC1CC1" >= 6
Reply: yes

Ask: # bool: pIC50 of "CCCC(CCC)Oc1c(Br)cc(-c2ccccc2-c2nnn[nH]2)cc1NC(=O)Nc1ccc(C)cc1" >= 6
Reply: yes

Ask: # bool: pIC50 of "COc1ccc(-c2ccc(Oc3cccc4c3CCCC4=O)c(NC(=O)Nc3ccccc3C)c2)cc1C(=O)O" >= 6
Reply: no
